protocol_details: Clinical pharmacokinetics: plasma CYH33 and I27 by LC/MS/MS
Type: in vivo, human
conditions_used: human, plasma, oral, 30 mg, CYH33, Cycle 1 Day 28, 30 mg (n=9); read-out: Tmax, median
result_type: Tmax
Include the unit right after the number.

Entry COC(=O)Nc1cc(C(F)(F)F)c(-c2nc(N3CCOCC3)c3cc(CN4CCN(S(C)(=O)=O)CC4)cn3n2)cn1 [CYH33] — recorded Tmax = 3 h

---

protocol_details: Clinical pharmacokinetics: plasma CYH33 and I27 by LC/MS/MS
Assay type: in vivo, human
conditions_used: human, plasma, oral, 30 mg, CYH33, Cycle 1 Day 28, 30 mg (n=9); read-out: AUC0-24h, mean
result_type: AUC(0-t) (ng·h/mL)
Write the number in ng·h/mL without appending the unit.

Entry COC(=O)Nc1cc(C(F)(F)F)c(-c2nc(N3CCOCC3)c3cc(CN4CCN(S(C)(=O)=O)CC4)cn3n2)cn1 — recorded AUC(0-t) = 3530

---

protocol_details: Clinical pharmacokinetics: plasma CYH33 and I27 by LC/MS/MS
Format: in vivo, human
conditions_used: human, plasma, oral; CYH33, Cycle 1 Day 1, 10 mg (n = 2); read-out: t1/2, mean (CV%) (converted)
result_type: half-life (h)
Write the number in h without appending the unit.

Entry COC(=O)Nc1cc(C(F)(F)F)c(-c2nc(N3CCOCC3)c3cc(CN4CCN(S(C)(=O)=O)CC4)cn3n2)cn1 — recorded half-life = 20.2

---

protocol_details: Clinical pharmacokinetics: plasma CYH33 and I27 by LC/MS/MS
Type: in vivo, human
conditions_used: human, plasma, oral, 20 mg, CYH33, Cycle 1 Day 28, 20 mg (n=6); read-out: Cmax, mean
result_type: Cmax (ng/mL)
Write the number in ng/mL without appending the unit.

Entry COC(=O)Nc1cc(C(F)(F)F)c(-c2nc(N3CCOCC3)c3cc(CN4CCN(S(C)(=O)=O)CC4)cn3n2)cn1 — recorded Cmax = 154

---

protocol_details: Clinical pharmacokinetics: plasma CYH33 and I27 by LC/MS/MS
Assay type: in vivo, human
conditions_used: human, plasma, oral; C1D1, 20 mg, 4 h
result_type: concentration at 4 h (ng/mL)
Write the number in ng/mL without appending the unit.

Entry COC(=O)Nc1cc(C(F)(F)F)c(-c2nc(N3CCOCC3)c3cc(CN4CCN(S(C)(=O)=O)CC4)cn3n2)cn1 [CYH33] — recorded concentration at 4 h = 43.9

---

protocol_details: Clinical pharmacokinetics: plasma CYH33 and I27 by LC/MS/MS
Type: in vivo, human
conditions_used: C1D1, 40 mg, 48 h
result_type: CYH33 plasma concentration, mean (ng/mL)
Write the number in ng/mL without appending the unit.

Entry COC(=O)Nc1cc(C(F)(F)F)c(-c2nc(N3CCOCC3)c3cc(CN4CCN(S(C)(=O)=O)CC4)cn3n2)cn1 [CYH33] — recorded CYH33 plasma concentration, mean = 45.2

---

protocol_details: Clinical pharmacokinetics: plasma CYH33 and I27 by LC/MS/MS
Format: in vivo, human
conditions_used: human, plasma, oral, 10 mg, CYH33, Cycle 1 Day 28, 10 mg (n=2); read-out: AUC0-24h, mean
result_type: AUC(0-t) (ng·h/mL)
Write the number in ng·h/mL without appending the unit.

Entry COC(=O)Nc1cc(C(F)(F)F)c(-c2nc(N3CCOCC3)c3cc(CN4CCN(S(C)(=O)=O)CC4)cn3n2)cn1 [CYH33] — recorded AUC(0-t) = 1230

Where do the numbers come from? From paper PMC9669016.
